- System: neutrophils (neutrophil-lin)
- protocol: MLTA, Neut: concentration-response and QSP model fit
- Format: cell-based, human
- test_settings: Homo sapiens, Neutrophil, 144 h; dose 2500 nM, 6 days, normalized to vehicle control; read-out: Neut normalized cell count
value_kind: activity at 2.5 µM

compound: CC(=O)O[C@H]1C(=O)[C@@]2(C)[C@H]([C@H](OC(=O)c3ccccc3)[C@]3(O)C[C@H](OC(=O)[C@H](O)[C@@H](NC(=O)c4ccccc4)c4ccccc4)C(C)=C1C3(C)C)[C@]1(OC(C)=O)CO[C@@H]1C[C@@H]2O [paclitaxel]
experimental_value: 0%
//
compound: CC(=O)O[C@@]12CO[C@@H]1C[C@H](O)[C@@]1(C)C(=O)[C@H](O)C3=C(C)[C@@H](OC(=O)[C@H](O)[C@@H](NC(=O)OC(C)(C)C)c4ccccc4)C[C@@](O)([C@@H](OC(=O)c4ccccc4)[C@H]21)C3(C)C [docetaxel]
experimental_value: 0%
//
compound: CS(=O)(=O)N1CCN(Cc2cc3nc(-c4cccc5[nH]ncc45)nc(N4CCOCC4)c3s2)CC1 [pictilisib]
experimental_value: 0.529%
//
compound: CN(C)C(=O)c1cc2cnc(Nc3ccc(N4CCNCC4)cn3)nc2n1C1CCCC1 [ribociclib]
experimental_value: 4.85%
//
compound: CCN1CCN(Cc2ccc(Nc3ncc(F)c(-c4cc(F)c5nc(C)n(C(C)C)c5c4)n3)nc2)CC1 [abemaciclib]
experimental_value: 0.0296%
//
compound: O=C1CCC(N2C(=O)c3ccccc3C2=O)C(=O)N1 (centres unmarked) [thalidomide]
experimental_value: 96.9%
//
compound: CCc1cnn2c(NCc3ccc[n+]([O-])c3)cc(N3CCCC[C@H]3CCO)nc12 [dinaciclib]
experimental_value: 0.0149%
//
compound: CC(=O)c1c(C)c2cnc(Nc3ccc(N4CCNCC4)cn3)nc2n(C2CCCC2)c1=O [palbociclib]
experimental_value: 0.666%

* * *

We begin with a simple list: items and their reported activity at 0.1 µM.
- Tested on: hematopoietic stem cells (HSCs)
- protocol: Multi-lineage toxicity assay (MLTA), HSCs: concentration-response and QSP model fit
- Format: cell-based, human
- test_settings: Homo sapiens, Hematopoietic stem cell, 144 h; dose 100 nM, 6 days, normalized to vehicle control; read-out: HSCs normalized cell count
value_kind: activity at 0.1 µM

compound: CC(=O)O[C@H]1C(=O)[C@@]2(C)[C@H]([C@H](OC(=O)c3ccccc3)[C@]3(O)C[C@H](OC(=O)[C@H](O)[C@@H](NC(=O)c4ccccc4)c4ccccc4)C(C)=C1C3(C)C)[C@]1(OC(C)=O)CO[C@@H]1C[C@@H]2O
value_kind: activity at 0.1 µM
experimental_value: 4.8%

compound: CS(=O)(=O)N1CCN(Cc2cc3nc(-c4cccc5[nH]ncc45)nc(N4CCOCC4)c3s2)CC1
value_kind: activity at 0.1 µM
experimental_value: 58.1%

compound: CN(C)C(=O)c1cc2cnc(Nc3ccc(N4CCNCC4)cn3)nc2n1C1CCCC1
value_kind: activity at 0.1 µM
experimental_value: 89.4%

compound: CC(=O)c1c(C)c2cnc(Nc3ccc(N4CCNCC4)cn3)nc2n(C2CCCC2)c1=O
value_kind: activity at 0.1 µM
experimental_value: 48.9%

compound: CCN1CCN(Cc2ccc(Nc3ncc(F)c(-c4cc(F)c5nc(C)n(C(C)C)c5c4)n3)nc2)CC1
value_kind: activity at 0.1 µM
experimental_value: 25.9%

compound: CC(=O)O[C@@]12CO[C@@H]1C[C@H](O)[C@@]1(C)C(=O)[C@H](O)C3=C(C)[C@@H](OC(=O)[C@H](O)[C@@H](NC(=O)OC(C)(C)C)c4ccccc4)C[C@@](O)([C@@H](OC(=O)c4ccccc4)[C@H]21)C3(C)C
value_kind: activity at 0.1 µM
experimental_value: 0.534%

compound: O=C1CCC(N2C(=O)c3ccccc3C2=O)C(=O)N1 (centres unmarked) [thalidomide]
value_kind: activity at 0.1 µM
experimental_value: 84.9%

compound: CCc1cnn2c(NCc3ccc[n+]([O-])c3)cc(N3CCCC[C@H]3CCO)nc12
value_kind: activity at 0.1 µM
experimental_value: 1.89%

Hey, just so you know, these numbers are from paper PMC7402526.
